- protocol description: Test 2: Pharmacokinetic test in rats
- Type: in vivo, rat
- condition context: rat, blood, po, 15 mg/kg, Rat-1, oral 15 mg/kg, 20 min; read-out: Blood concentration
measurement kind: concentration at 20 min

Request the reported concentration at 20 min associated with CN(C(=O)[C@H](Cc1ccc(C(=N)NN)cc1)NS(=O)(=O)c1ccc2ccccc2c1)C1CCCC1
569 ng/mL

* * *

- protocol description: Test 2: Pharmacokinetic test in rats
- Assay type: in vivo, rat
- condition context: rat, blood, iv, 10 mg/kg, Rat-2, i.v. 10 mg/kg, 60 min; read-out: Blood concentration
measurement kind: concentration at 1 h (ng/mL)
Write it as a number; the unit ng/mL goes unstated.

Request the reported concentration at 1 h associated with CN(C(=O)[C@H](Cc1ccc(C(=N)NN)cc1)NS(=O)(=O)c1ccc2ccccc2c1)C1CCCC1 [Example 1]
242

* * *

- system: bovine thrombin (Bos taurus, UniProt P00735);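 note: bovine thrombin cleaving the chromogenic substrate Chromozym TH, with para-nitroaniline release tracked as absorbance change over time to give initial rates, in Tris buffer at pH 7.8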
- protocol description: biochemical
Please respond with 1 when measured Ki is strictly beneath 500 nM, and with 0 in all other cases.

Example cases with answers are listed next.
                                test_smiles  discrete_label
0  COC(=O)[C@H](C(C)C)N(C)C(=O)[C@H](Cc1ccc(C(=N)NN)cc1)NS(=O)(=O)c1ccc2ccccc2c1               0
1  N=C(NN)c1ccc(C[C@H](NS(=O)(=O)c2ccc3ccccc3c2)C(=O)N2CCN(CCO)CC2)cc1               1
2  CN(C(=O)[C@H](Cc1ccc(C(=N)NN)cc1)NC(=O)Cc1cccc2ccccc12)C1CCCC1               1
3  CCCCN(CC(=O)OC)C(=O)[C@H](Cc1ccc(C(=N)NN)cc1)NS(=O)(=O)c1ccc2ccccc2c1               1
4  COC(=O)[C@@H](C(C)C)N(C)C(=O)[C@H](Cc1ccc(C(=N)NN)cc1)NS(=O)(=O)c1ccc2ccccc2c1               1
5  CCN1CCN(C(=O)[C@H](Cc2ccc(C(=N)NN)cc2)NS(=O)(=O)c2ccc3ccccc3c2)CC1               0

Please find the next compound below.
Is Ki of N=C(NN)c1ccc(C[C@H](NS(=O)(=O)c2ccc3ccccc3c2)C(=O)N2CCN(c3ccccc3)CC2)cc1 strictly below 500 nM?
0

* * *

- protocol description: Test 2: Pharmacokinetic test in rats
- Assay type: in vivo, rat
- condition context: rat, blood, po, 15 mg/kg, Rat-2, oral 15 mg/kg, 45 min; read-out: Blood concentration
measurement kind: concentration at 0.75 h (ng/mL)
Write it as a number; the unit ng/mL goes unstated.

Request the reported concentration at 0.75 h associated with CN(C(=O)[C@H](Cc1ccc(C(=N)NN)cc1)NS(=O)(=O)c1ccc2ccccc2c1)C1CCCC1
107

* * *

- protocol description: Test 2: Pharmacokinetic test in rats
- Type: in vivo, rat
- condition context: rat, blood, iv, 10 mg/kg, Rat-2, i.v. 10 mg/kg, 30 min; read-out: Blood concentration
measurement kind: concentration at 0.5 h (ng/mL)
Write it as a number; the unit ng/mL goes unstated.

Request the reported concentration at 0.5 h associated with CN(C(=O)[C@H](Cc1ccc(C(=N)NN)cc1)NS(=O)(=O)c1ccc2ccccc2c1)C1CCCC1 [Example 1]
600

* * *

- protocol description: Test 2: Pharmacokinetic test in rats
- Type: in vivo, rat
- condition context: rat, blood, po, 15 mg/kg, rats, oral 15 mg/kg, 5 min; read-out: Blood concentration, Average(+error)
measurement kind: concentration at 5 min (ng/mL)
Write it as a number; the unit ng/mL goes unstated.

Request the reported concentration at 5 min associated with CN(C(=O)[C@H](Cc1ccc(C(=N)NN)cc1)NS(=O)(=O)c1ccc2ccccc2c1)C1CCCC1
1000

* * *

- protocol description: Test 2: Pharmacokinetic test in dogs
- Format: in vivo, dog
- condition context: dog, blood, po, 10 mg/kg, Dog-2, oral 10 mg/kg, 20 min; read-out: Blood concentration
measurement kind: concentration at 20 min (ng/mL)
Write it as a number; the unit ng/mL goes unstated.

Request the reported concentration at 20 min associated with CN(C(=O)[C@H](Cc1ccc(C(=N)NN)cc1)NS(=O)(=O)c1ccc2ccccc2c1)C1CCCC1 [Example 1]
17

* * *

- protocol description: Test 2: Pharmacokinetic test in dogs
- Format: in vivo, dog
- condition context: dog, blood, iv, 10 mg/kg, Dog-2, i.v. 10 mg/kg, 120 min; read-out: Blood concentration
measurement kind: concentration at 2 h
Please state the number and follow it with the unit.

Request the reported concentration at 2 h associated with CN(C(=O)[C@H](Cc1ccc(C(=N)NN)cc1)NS(=O)(=O)c1ccc2ccccc2c1)C1CCCC1 [Example 1]
377 ng/mL

* * *

- protocol description: Test 2: Pharmacokinetic test in rats
- Assay type: in vivo, rat
- condition context: rat, blood, po, 15 mg/kg, Rat-1, oral 15 mg/kg, 5 min; read-out: Blood concentration
measurement kind: concentration at 5 min (ng/mL)
Write it as a number; the unit ng/mL goes unstated.

Request the reported concentration at 5 min associated with CN(C(=O)[C@H](Cc1ccc(C(=N)NN)cc1)NS(=O)(=O)c1ccc2ccccc2c1)C1CCCC1 [Example 1]
1610

* * *

- protocol description: Test 2: Pharmacokinetic test in dogs
- Type: in vivo, dog
- condition context: dog, blood, po, 10 mg/kg, Dog-1, oral 10 mg/kg, 300 min; read-out: Blood concentration
measurement kind: concentration at 5 h
Please state the number and follow it with the unit.

Request the reported concentration at 5 h associated with CN(C(=O)[C@H](Cc1ccc(C(=N)NN)cc1)NS(=O)(=O)c1ccc2ccccc2c1)C1CCCC1
51 ng/mL

* * *

- protocol description: Test 2: Pharmacokinetic test in dogs
- Assay type: in vivo, dog
- condition context: dog, blood, iv, 10 mg/kg, dogs, i.v. 10 mg/kg, 10 min; read-out: Blood concentration, Average(+error)
measurement kind: concentration at 10 min (ng/mL)
Write it as a number; the unit ng/mL goes unstated.

Request the reported concentration at 10 min associated with CN(C(=O)[C@H](Cc1ccc(C(=N)NN)cc1)NS(=O)(=O)c1ccc2ccccc2c1)C1CCCC1
4610

* * *

- protocol description: Test 2: Pharmacokinetic test in dogs
- Type: in vivo, dog
- condition context: dog, blood, iv, 10 mg/kg, Dog-2, i.v. 10 mg/kg, 60 min; read-out: Blood concentration
measurement kind: concentration at 1 h
Please state the number and follow it with the unit.

Request the reported concentration at 1 h associated with CN(C(=O)[C@H](Cc1ccc(C(=N)NN)cc1)NS(=O)(=O)c1ccc2ccccc2c1)C1CCCC1
690 ng/mL

* * *

- protocol description: Test 2: Pharmacokinetic test in rats
- Format: in vivo, rat
- condition context: rat, blood, po, 15 mg/kg, Rat-3, oral 15 mg/kg, 30 min; read-out: Blood concentration
measurement kind: concentration at 0.5 h (ng/mL)
Write it as a number; the unit ng/mL goes unstated.

Request the reported concentration at 0.5 h associated with CN(C(=O)[C@H](Cc1ccc(C(=N)NN)cc1)NS(=O)(=O)c1ccc2ccccc2c1)C1CCCC1
113

* * *

- protocol description: Test 2: Pharmacokinetic test in rats
- Type: in vivo, rat
- condition context: rat, blood, iv, 10 mg/kg, Rat-1, i.v. 10 mg/kg, 90 min; read-out: Blood concentration
measurement kind: concentration at 1.5 h (ng/mL)
Write it as a number; the unit ng/mL goes unstated.

Request the reported concentration at 1.5 h associated with CN(C(=O)[C@H](Cc1ccc(C(=N)NN)cc1)NS(=O)(=O)c1ccc2ccccc2c1)C1CCCC1
168

* * *

- protocol description: Test 2: Pharmacokinetic test in rats
- Type: in vivo, rat
- condition context: rat, blood, iv, 10 mg/kg, rats, i.v. 10 mg/kg, 1 min; read-out: Blood concentration, Average(+error)
measurement kind: concentration at 1 min (ng/mL)
Write it as a number; the unit ng/mL goes unstated.

Request the reported concentration at 1 min associated with CN(C(=O)[C@H](Cc1ccc(C(=N)NN)cc1)NS(=O)(=O)c1ccc2ccccc2c1)C1CCCC1 [Example 1]
28800

* * *

- protocol description: Test 2: Pharmacokinetic test in rats
- Assay type: in vivo, rat
- condition context: rat, blood, iv, 10 mg/kg, Rat-1, i.v. 10 mg/kg, 3 min; read-out: Blood concentration
measurement kind: concentration at 0.05 h (µg/mL)
Write it as a number; the unit µg/mL goes unstated.

Request the reported concentration at 0.05 h associated with CN(C(=O)[C@H](Cc1ccc(C(=N)NN)cc1)NS(=O)(=O)c1ccc2ccccc2c1)C1CCCC1 [Example 1]
8.11

* * *

- protocol description: Test 2: Pharmacokinetic test in rats
- Format: in vivo, rat
- condition context: rat, blood, po, 15 mg/kg, Rat-3, oral 15 mg/kg, 20 min; read-out: Blood concentration
measurement kind: concentration at 20 min (ng/mL)
Write it as a number; the unit ng/mL goes unstated.

Request the reported concentration at 20 min associated with CN(C(=O)[C@H](Cc1ccc(C(=N)NN)cc1)NS(=O)(=O)c1ccc2ccccc2c1)C1CCCC1
97
